- target-system: T1, RBFOX1 RRM RbFoxmut (Fox-RRM*) (Homo sapiens, UniProt Q9NWB1 109-208, R118D;E147R;N151S;E152T)
- T1 sequence: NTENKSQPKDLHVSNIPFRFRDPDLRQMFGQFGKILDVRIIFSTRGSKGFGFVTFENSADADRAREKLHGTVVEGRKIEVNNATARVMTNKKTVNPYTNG
- procedure-summary: EMSA; HiTS-Eq, 1 nM pool, 10 min; buffer printed only for the single-RNA assays: 10 mM Tris pH 7.5, 150 mM NaCl, 3.4 mM EDTA, 0.001% NP-40, 30 C
- measurement-parameters: tags: His6 N-terminal (pET28a); label: 5' 32P
The full ranking holds about 16,000 sequences; the median of “ka relative to ugcaugu” is about 0.096, and the highest 2% start at about 0.35. The full list was thinned out, with the highest values kept by preference.
readout-kind: binding signal

binder: CGUAAUC (DNA:RNA) RNA: GGGAGACCGGAAUUCAGAUUGUCCCGUAAUCUUAAAUCCCGUCGUAGCCACCA DNA 1: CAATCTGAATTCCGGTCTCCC DNA 2: TGGTGGCTACGACGGGATT
observed-value: 0.0673 KA relative to UGCAUGU

binder: AGAUGGU (DNA:RNA) RNA: GGGAGACCGGAAUUCAGAUUGUCCAGAUGGUUUAAAUCCCGUCGUAGCCACCA DNA 1: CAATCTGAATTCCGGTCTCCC DNA 2: TGGTGGCTACGACGGGATT
observed-value: 0.117 KA relative to UGCAUGU

binder: CGCUCCU (DNA:RNA) RNA: GGGAGACCGGAAUUCAGAUUGUCCCGCUCCUUUAAAUCCCGUCGUAGCCACCA DNA 1: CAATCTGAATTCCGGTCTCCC DNA 2: TGGTGGCTACGACGGGATT
observed-value: 0.0521 KA relative to UGCAUGU

binder: CACCGUU (DNA:RNA) RNA: GGGAGACCGGAAUUCAGAUUGUCCCACCGUUUUAAAUCCCGUCGUAGCCACCA DNA 1: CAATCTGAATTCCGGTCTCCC DNA 2: TGGTGGCTACGACGGGATT
observed-value: 0.0894 KA relative to UGCAUGU

binder: CAAGAAC (DNA:RNA) RNA: GGGAGACCGGAAUUCAGAUUGUCCCAAGAACUUAAAUCCCGUCGUAGCCACCA DNA 1: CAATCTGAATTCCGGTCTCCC DNA 2: TGGTGGCTACGACGGGATT
observed-value: 0.106 KA relative to UGCAUGU

binder: AUUAGAG (DNA:RNA) RNA: GGGAGACCGGAAUUCAGAUUGUCCAUUAGAGUUAAAUCCCGUCGUAGCCACCA DNA 1: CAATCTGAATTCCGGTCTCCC DNA 2: TGGTGGCTACGACGGGATT
observed-value: 0.146 KA relative to UGCAUGU

binder: AGCCAUG (DNA:RNA) RNA: GGGAGACCGGAAUUCAGAUUGUCCAGCCAUGUUAAAUCCCGUCGUAGCCACCA DNA 1: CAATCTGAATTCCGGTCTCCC DNA 2: TGGTGGCTACGACGGGATT
observed-value: 0.163 KA relative to UGCAUGU

binder: GGUACUG (DNA:RNA) RNA: GGGAGACCGGAAUUCAGAUUGUCCGGUACUGUUAAAUCCCGUCGUAGCCACCA DNA 1: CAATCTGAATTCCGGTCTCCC DNA 2: TGGTGGCTACGACGGGATT
observed-value: 0.112 KA relative to UGCAUGU

binder: ACAAAUC (DNA:RNA) RNA: GGGAGACCGGAAUUCAGAUUGUCCACAAAUCUUAAAUCCCGUCGUAGCCACCA DNA 1: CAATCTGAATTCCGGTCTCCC DNA 2: TGGTGGCTACGACGGGATT
observed-value: 0.0702 KA relative to UGCAUGU
